// reported inhibition at 1 µM for each item listed
# ASSAY_TARGET: panel of 255 wild-type kinases (Homo sapiens, UniProt P54756)
# Sequence (P54756 25-1037): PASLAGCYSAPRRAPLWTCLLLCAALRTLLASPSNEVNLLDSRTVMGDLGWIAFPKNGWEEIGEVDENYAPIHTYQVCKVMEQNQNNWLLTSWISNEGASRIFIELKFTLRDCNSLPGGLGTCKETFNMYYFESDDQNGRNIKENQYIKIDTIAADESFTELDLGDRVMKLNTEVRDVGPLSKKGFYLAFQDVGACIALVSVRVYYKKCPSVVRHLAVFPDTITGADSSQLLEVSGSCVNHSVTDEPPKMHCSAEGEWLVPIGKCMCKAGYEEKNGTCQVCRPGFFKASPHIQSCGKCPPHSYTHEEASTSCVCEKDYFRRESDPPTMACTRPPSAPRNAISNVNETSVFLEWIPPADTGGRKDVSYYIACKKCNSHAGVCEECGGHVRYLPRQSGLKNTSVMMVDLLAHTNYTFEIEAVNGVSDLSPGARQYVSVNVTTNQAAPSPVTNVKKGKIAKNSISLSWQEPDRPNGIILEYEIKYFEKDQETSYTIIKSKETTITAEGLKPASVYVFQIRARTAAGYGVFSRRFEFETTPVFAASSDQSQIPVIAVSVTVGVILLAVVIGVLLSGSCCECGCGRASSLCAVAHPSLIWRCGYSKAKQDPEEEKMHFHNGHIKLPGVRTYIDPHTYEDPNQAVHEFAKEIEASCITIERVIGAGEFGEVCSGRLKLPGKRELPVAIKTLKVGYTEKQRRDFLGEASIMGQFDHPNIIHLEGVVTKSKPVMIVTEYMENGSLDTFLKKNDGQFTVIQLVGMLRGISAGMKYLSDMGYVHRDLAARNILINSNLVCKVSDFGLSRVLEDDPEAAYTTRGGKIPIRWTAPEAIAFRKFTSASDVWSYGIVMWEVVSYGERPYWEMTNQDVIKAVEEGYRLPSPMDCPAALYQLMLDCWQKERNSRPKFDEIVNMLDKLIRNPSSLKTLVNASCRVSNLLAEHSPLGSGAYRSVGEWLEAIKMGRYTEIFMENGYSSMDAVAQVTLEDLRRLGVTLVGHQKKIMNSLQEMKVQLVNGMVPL
# MEASUREMENT_PROTOCOL: Kinase panel profiling at 1 µmol/L (MSA or IMAP), percentage inhibition
# Assay type: biochemical
# ASSAY_CONDITIONS: kinase EPHA5; 1 µmol/L single concentration; read-out: %-inhibition at 1 µmol/L, EPHA5
ENDPOINT_LABEL: inhibition at 1 µM (%)

In [3]: df
Out[3]:
                            molecule_smiles  readout_units  quantitative_readout
0  Cc1nc(NC(=O)N2CCC[C@H]2C(N)=O)sc1-c1ccnc(C(C)(C)C(F)(F)F)c1              %                 0.272
1  COC(=O)N[C@@H](C)CNc1nccc(-c2cn(C(C)C)nc2-c2cc(Cl)cc(NS(C)(=O)=O)c2F)n1              %                 -2.32
2  COc1ccc(CN2C3CC2CN(c2ccc(-c4cc(OCC(C)(C)O)cn5ncc(C#N)c45)cn2)C3)cn1              %                    69
3  C[C@H](Nc1ncnc2nc[nH]c12)c1cc2cccc(Cl)c2c(=O)n1-c1ccccc1              %                 0.787

* * *

# Tested on: 134 cancer cell lines
# MEASUREMENT_PROTOCOL: Cell viability assay (ATPlite, 72 hours), IC50 on cancer cell line panel
# ASSAY_CONDITIONS: Homo sapiens, SK-BR-3, read-out: IC50 in cell proliferation assay, cell line SK-BR-3 (ERBB2 amplification)
pIC50: −log10 of the molar value.
ENDPOINT_LABEL: pIC50

                                   compound  endpoint_label  bound_sign  quantitative_readout
0  CC(=O)Nc1cccc(-n2c(=O)n(C3CC3)c(=O)c3c(Nc4ccc(I)cc4F)n(C)c(=O)c(C)c32)c1 [trametinib]           pIC50           <                  4.50
1  CO[C@]1(C(=O)N[C@@H](C)c2ccc(-n3cc(F)cn3)nc2)CC[C@H](c2nc(C)cc(Nc3cc(C)[nH]n3)n2)CC1 [pralsetinib]           pIC50           =                  5.41
2  COc1ccc(CN2C3CC2CN(c2ccc(-c4cc(OCC(C)(C)O)cn5ncc(C#N)c45)cn2)C3)cn1 [selpercatinib]           pIC50           =                  4.65
3  O=C(c1ccc(F)c(F)c1Nc1ccc(I)cc1F)N1CC(O)([C@@H]2CCCCN2)C1 [cobimetinib]           pIC50           <                  5.00
4  COc1cc2ncnc(Nc3ccc(F)c(Cl)c3)c2cc1NC(=O)/C=C/CN1CCCCC1 [dacomitinib]           pIC50           =                  7.57
5  COC(=O)N[C@@H](C)CNc1nccc(-c2cn(C(C)C)nc2-c2cc(Cl)cc(NS(C)(=O)=O)c2F)n1 [encorafenib]           pIC50           <                  4.50

* * *

# System: 134 cancer cell lines
# MEASUREMENT_PROTOCOL: Cell viability assay (ATPlite, 72 hours), IC50 on cancer cell line panel
# ASSAY_CONDITIONS: Homo sapiens, DLD-1, read-out: IC50 in cell proliferation assay, cell line DLD-1
pIC50: −log10 of the molar value.
Measured pIC50 of individual entries
ENDPOINT_LABEL: pIC50

                            molecule_smiles  endpoint_label  bound_sign  quantitative_readout
0  CCCS(=O)(=O)Nc1ccc(F)c(C(=O)c2c[nH]c3ncc(-c4ccc(Cl)cc4)cc23)c1F           pIC50           <                  4.50
1  CCN1CCN(c2ccc(Nc3cc(N(C)C(=O)Nc4c(Cl)c(OC)cc(OC)c4Cl)ncn3)cc2)CC1           pIC50           <                  5.50
2  COc1ccc(CN2C3CC2CN(c2ccc(-c4cc(OCC(C)(C)O)cn5ncc(C#N)c45)cn2)C3)cn1           pIC50           =                  5.07
3  FC(F)(F)c1ccc(CNc2ccc(Cc3c[nH]c4ncc(Cl)cc34)cn2)cn1           pIC50           <                  4.50
4  Cc1nc(NC(=O)N2CCC[C@H]2C(N)=O)sc1-c1ccnc(C(C)(C)C(F)(F)F)c1           pIC50           =                  6.17
5  CCc1nc(C(N)=O)c(Nc2ccc(N3CCC(N4CCN(C)CC4)CC3)c(OC)c2)nc1NC1CCOCC1           pIC50           =                  6.13
6  COc1cc2ncnc(Nc3ccc(F)c(Cl)c3)c2cc1NC(=O)/C=C/CN1CCCCC1           pIC50           =                  5.49

* * *

// values below are reported pIC50
# Tested on: 134 cancer cell lines
# MEASUREMENT_PROTOCOL: Cell viability assay (ATPlite, 72 hours), IC50 on cancer cell line panel
# ASSAY_CONDITIONS: Homo sapiens, SW948, read-out: IC50 in cell proliferation assay
pIC50: −log10 of the molar value.
ENDPOINT_LABEL: pIC50

In [3]: df
Out[3]:
                            molecule_smiles  endpoint_label  result
0  Cn1cc(-c2cc3c(N4CCN(c5ncc([C@@](C)(N)c6ccc(F)cc6)cn5)CC4)ncnn3c2)cn1           pIC50    4.85
1  CCc1cc2c(cc1N1CCC(N3CCOCC3)CC1)C(C)(C)c1[nH]c3cc(C#N)ccc3c1C2=O           pIC50  < 5.00
2  CC#CC(=O)N1CCC[C@H]1c1nc(-c2ccc(C(=O)Nc3ccccn3)cc2)c2c(N)nccn12           pIC50  < 4.50
3  CNC(=O)c1ccc(-c2cnc3ncc(Cc4ccc5ncccc5c4)n3n2)cc1F           pIC50  < 4.50

* * *

In this section we review reported inhibition at 1 µM values for a set of compounds.
# ASSAY_TARGET: panel of 255 wild-type kinases (Homo sapiens, UniProt Q13464)
# Sequence (Q13464 whole entry): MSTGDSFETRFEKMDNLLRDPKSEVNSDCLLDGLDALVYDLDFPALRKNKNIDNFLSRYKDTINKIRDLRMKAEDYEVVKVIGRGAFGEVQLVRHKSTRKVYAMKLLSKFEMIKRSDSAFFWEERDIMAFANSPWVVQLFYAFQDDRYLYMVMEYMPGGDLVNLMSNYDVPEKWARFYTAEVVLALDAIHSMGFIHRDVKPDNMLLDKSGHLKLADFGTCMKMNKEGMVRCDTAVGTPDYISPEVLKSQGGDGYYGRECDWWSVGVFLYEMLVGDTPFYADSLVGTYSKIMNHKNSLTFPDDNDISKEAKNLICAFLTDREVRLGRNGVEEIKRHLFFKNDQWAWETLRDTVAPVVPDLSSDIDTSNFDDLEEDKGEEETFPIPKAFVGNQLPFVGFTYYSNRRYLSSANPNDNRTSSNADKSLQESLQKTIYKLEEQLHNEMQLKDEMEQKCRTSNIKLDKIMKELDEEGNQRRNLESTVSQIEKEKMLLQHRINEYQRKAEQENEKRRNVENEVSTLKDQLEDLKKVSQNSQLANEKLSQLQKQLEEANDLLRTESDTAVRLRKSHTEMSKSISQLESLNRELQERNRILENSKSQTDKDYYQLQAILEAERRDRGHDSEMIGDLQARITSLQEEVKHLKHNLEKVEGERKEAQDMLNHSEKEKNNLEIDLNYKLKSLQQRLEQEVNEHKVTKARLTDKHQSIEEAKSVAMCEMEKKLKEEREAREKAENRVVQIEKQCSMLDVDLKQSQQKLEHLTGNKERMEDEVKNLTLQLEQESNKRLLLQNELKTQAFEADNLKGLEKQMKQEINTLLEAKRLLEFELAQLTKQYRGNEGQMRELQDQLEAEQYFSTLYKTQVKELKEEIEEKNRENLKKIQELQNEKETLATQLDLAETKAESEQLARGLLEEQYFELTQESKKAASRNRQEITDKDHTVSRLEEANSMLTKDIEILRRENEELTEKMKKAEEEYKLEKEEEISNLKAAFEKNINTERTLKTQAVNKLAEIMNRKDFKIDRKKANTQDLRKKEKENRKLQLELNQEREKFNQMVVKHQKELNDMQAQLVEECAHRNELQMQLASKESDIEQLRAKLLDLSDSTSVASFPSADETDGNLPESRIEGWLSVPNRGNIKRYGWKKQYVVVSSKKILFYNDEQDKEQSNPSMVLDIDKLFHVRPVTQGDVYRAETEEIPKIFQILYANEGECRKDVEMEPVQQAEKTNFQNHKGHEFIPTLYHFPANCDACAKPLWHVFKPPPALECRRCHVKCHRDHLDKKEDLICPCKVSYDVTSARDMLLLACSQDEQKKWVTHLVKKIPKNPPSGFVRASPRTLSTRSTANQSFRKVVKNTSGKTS
# MEASUREMENT_PROTOCOL: Kinase panel profiling at 1 µmol/L (MSA or IMAP), percentage inhibition
# Assay type: biochemical
# ASSAY_CONDITIONS: kinase ROCK1; 1 µmol/L single concentration; read-out: %-inhibition at 1 µmol/L, ROCK1
ENDPOINT_LABEL: inhibition at 1 µM (%)

>>> print(df.to_string())
                                   compound                              assay_target  readout_units  quantitative_readout
0  CCc1nc(C(N)=O)c(Nc2ccc(N3CCC(N4CCN(C)CC4)CC3)c(OC)c2)nc1NC1CCOCC1 [gilteritinib]  panel of 255 wild-type kinases (Homo sapiens, UniProt Q13464)              %                    60
1  FC(F)(F)c1ccc(CNc2ccc(Cc3c[nH]c4ncc(Cl)cc34)cn2)cn1 [pexidartinib]  panel of 255 wild-type kinases (Homo sapiens, UniProt Q13464)              %                     9
2  Cn1cnc2c(F)c(Nc3ccc(Br)cc3F)c(C(=O)NOCCO)cc21 [binimetinib]  panel of 255 wild-type kinases (Homo sapiens, UniProt Q13464)              %                    -7
3  Cc1nc(NC(=O)N2CCC[C@H]2C(N)=O)sc1-c1ccnc(C(C)(C)C(F)(F)F)c1 [alpelisib]  panel of 255 wild-type kinases (Homo sapiens, UniProt Q13464)              %                -0.415
4  C[C@H](Nc1ncnc2nc[nH]c12)c1cc2cccc(Cl)c2c(=O)n1-c1ccccc1 [duvelisib]  panel of 255 wild-type kinases (Homo sapiens, UniProt Q13464)              %                 -4.36
5  C=CC(=O)N1CCC([C@@H]2CCNc3c(C(N)=O)c(-c4ccc(Oc5ccccc5)cc4)nn32)CC1 [zanubrutinib]  panel of 255 wild-type kinases (Homo sapiens, UniProt Q13464)              %                 -1.57
6  CCn1c(=O)c(-c2cc(NC(=O)Nc3ccccc3)c(F)cc2Br)cc2cnc(NC)cc21 [ripretinib]  panel of 255 wild-type kinases (Homo sapiens, UniProt Q13464)              %                 -2.14
7  Cn1cnc2c(F)c(Nc3ccc(Br)cc3Cl)c(C(=O)NOCCO)cc21 [selumetinib]  panel of 255 wild-type kinases (Homo sapiens, UniProt Q13464)              %                 -1.15
